Tested on: normal human lymphocytes
test name: Toxicity of artemisinin-tagged peptide in normal lymphocytes (cell counting)
recorded conditions: Homo sapiens, Lymphocyte, read-out: IC50 for normal leukocytes
pIC50: −log10 of the molar value.
measured endpoint: pIC50

C[C@H]1[C@@H](O)O[C@@H]2O[C@@]3(C)CC[C@H]4[C@H](C)CC[C@@H]1[C@@]24OO3 [DHA, dihydroartemisinin]; 4.37

====

System: human Molt-4 lymphobastoid leukemia cells
test name: cells
recorded conditions: Homo sapiens, MOLT-4, 72 h, read-out: IC50 on Molt-4 cells
measured endpoint: IC50 (µM)

C[C@H]1[C@@H](O)O[C@@H]2O[C@@]3(C)CC[C@H]4[C@H](C)CC[C@@H]1[C@@]24OO3 [DHA, dihydroartemisinin]; 5.3
